biological target: UniProt P56817; assay: Inhibition of BACE1 at 2 uM
Sequence (P56817 whole entry): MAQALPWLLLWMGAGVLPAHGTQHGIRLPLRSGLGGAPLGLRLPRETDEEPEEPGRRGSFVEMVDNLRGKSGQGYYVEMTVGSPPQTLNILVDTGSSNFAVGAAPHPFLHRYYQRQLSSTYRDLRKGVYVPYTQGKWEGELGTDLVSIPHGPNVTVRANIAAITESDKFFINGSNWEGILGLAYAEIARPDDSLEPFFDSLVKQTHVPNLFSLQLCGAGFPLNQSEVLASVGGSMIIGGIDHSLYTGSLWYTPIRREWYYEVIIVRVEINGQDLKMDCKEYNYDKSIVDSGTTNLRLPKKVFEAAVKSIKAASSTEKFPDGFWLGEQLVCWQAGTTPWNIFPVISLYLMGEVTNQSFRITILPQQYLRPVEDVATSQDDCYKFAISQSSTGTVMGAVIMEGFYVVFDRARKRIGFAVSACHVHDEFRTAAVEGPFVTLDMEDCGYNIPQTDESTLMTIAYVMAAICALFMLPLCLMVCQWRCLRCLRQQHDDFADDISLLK
inhibition vs 90%: at or above is y, below is n.

Prompt: Has "CC(C)C[C@H](NC(=O)[C@@H](NC(=O)[C@@H](N)CCC(=O)O)C(C)C)C(=O)N[C@@H](Cc1ccccc1)[C@@H](O)C(=O)Nc1cccc(-c2noc(=O)[nH]2)c1" a recorded inhibition greater than or equal to 90%?
Response: y

Prompt: Is the recorded value of inhibition equal to or greater than 90% for this compound? "CC(C)C[C@H](NC(=O)[C@@H](NC(=O)[C@@H](N)CNC(=O)c1nn[nH]n1)C(C)C)C(=O)N[C@@H](Cc1ccccc1)[C@@H](O)C(=O)Nc1cccc(-c2noc(S)n2)c1"
Response: y

Prompt: # check: inhibition of "CC(C)C[C@H](NC(=O)[C@@H](NC(=O)[C@@H](N)CCC(=O)O)C(C)C)C(=O)N[C@@H](Cc1ccccc1)[C@@H](O)C(=O)Nc1cccc(-c2n[nH]c(=S)n2C)c1" is greater than or equal to 90%
Response: n

Prompt: Is the recorded value of inhibition equal to or greater than 90% for this compound? "CC(C)C[C@H](NC(=O)[C@@H](NC(=O)[C@@H](N)CCC(=O)O)C(C)C)C(=O)N[C@@H](Cc1ccccc1)[C@@H](O)C(=O)Nc1cc(-c2nn[nH]n2)cc(-c2nn[nH]n2)c1"
Response: y

Prompt: Is inhibition for "CC(C)C[C@H](NC(=O)[C@@H](NC(=O)[C@@H](N)CCC(=O)O)C(C)C)C(=O)N[C@@H](Cc1ccccc1)[C@@H](O)C(=O)Nc1cccc(C(N)=O)c1" at or above 90%?
Response: n

Prompt: Textbook exercise: given the entry "CC(C)C[C@H](NC(=O)[C@@H](NC(=O)[C@@H](N)CNC(=O)c1nn[nH]n1)C(C)C)C(=O)N[C@@H](Cc1ccccc1)[C@@H](O)C(=O)Nc1cccc(C(N)=O)c1" , state whether its inhibition is greater than or equal to 90%.
Response: y

Prompt: Item "CC(C)C[C@H](NC(=O)[C@@H](NC(=O)[C@@H](N)CCC(=O)O)C(C)C)C(=O)N[C@@H](Cc1ccccc1)[C@@H](O)C(=O)Nc1cccc(-c2noc(=S)[nH]2)c1" with inhibition of 90% or above?
Response: y

Prompt: Dear colleague, could you confirm whether "CC(C)C[C@H](NC(=O)[C@@H](NC(=O)[C@@H](N)CNC(=O)c1nn[nH]n1)C(C)C)C(=O)N[C@@H](Cc1ccccc1)[C@@H](O)C(=O)Nc1cc(-c2nn[nH]n2)cc(-c2nn[nH]n2)c1" has inhibition at or above 90%?
Response: y

Prompt: Confirm if inhibition reported for the compound "CC(C)C[C@H](NC(=O)[C@@H](NC(=O)[C@@H](N)CCC(=O)O)C(C)C)C(=O)N[C@@H](Cc1ccccc1)[C@@H](O)C(=O)Nc1cccc(C(=N)N)c1" is 90% or above.
Response: n
